Biological target: UniProtKB P06241
Sequence (P06241 whole entry, species assumed): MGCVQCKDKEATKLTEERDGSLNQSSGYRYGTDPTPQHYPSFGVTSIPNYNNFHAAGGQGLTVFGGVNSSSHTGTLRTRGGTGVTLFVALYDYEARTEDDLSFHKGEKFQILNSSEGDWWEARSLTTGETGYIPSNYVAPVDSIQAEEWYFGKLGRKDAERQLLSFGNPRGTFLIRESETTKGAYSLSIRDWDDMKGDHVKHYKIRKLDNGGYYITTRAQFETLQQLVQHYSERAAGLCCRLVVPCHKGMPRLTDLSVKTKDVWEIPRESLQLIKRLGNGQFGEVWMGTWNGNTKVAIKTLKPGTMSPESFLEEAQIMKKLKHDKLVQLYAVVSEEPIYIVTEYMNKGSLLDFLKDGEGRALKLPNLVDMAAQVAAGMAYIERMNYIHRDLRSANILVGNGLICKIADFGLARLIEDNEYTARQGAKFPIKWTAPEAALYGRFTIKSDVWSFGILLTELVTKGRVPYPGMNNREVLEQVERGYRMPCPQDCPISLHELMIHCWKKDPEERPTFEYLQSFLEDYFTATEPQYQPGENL
pIC50: −log10 of the molar value.
Quick reference: pIC50 of the listed items.

COc1cc(Nc2ncnc(Nc3ccc(N)cc3)n2)cc(OC)c1OC	< 4.91
COc1cc(Nc2ncnc(-n3ccc4cc(F)ccc43)n2)cc(OC)c1OC	5.22 to 5.99

Record COc1cc(Nc2ncnc(-n3cc(C)c4ccccc43)n2)cc(OC)c1OC : what is its pIC50 with UniProtKB P06241?
< 4.94

Record COc1cc(Nc2ncnc(Nc3cccc(C)c3)n2)cc(OC)c1OC : what is its pIC50 with UniProtKB P06241?
5.18 to 5.96

Record COc1ccc(Nc2ncnc(-n3c(N)nc4ccccc43)n2)cc1O : what is its pIC50 with UniProtKB P06241?
< 4.89
